TESTED_TARGET: T1, CD27 expressed on the cell surface (HT1080_CD27 cells) (human, UniProt P26842 20-260); further: test concentration or dose not given here
T1 sequence (looked up): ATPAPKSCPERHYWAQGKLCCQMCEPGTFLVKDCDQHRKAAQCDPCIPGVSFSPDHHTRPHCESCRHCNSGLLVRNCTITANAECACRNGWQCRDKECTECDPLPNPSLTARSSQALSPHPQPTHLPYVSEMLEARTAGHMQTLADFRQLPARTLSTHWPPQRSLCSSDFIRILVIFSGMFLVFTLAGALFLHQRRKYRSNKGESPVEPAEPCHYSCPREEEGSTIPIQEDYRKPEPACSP
ASSAY_PROTOCOL: cell-based or functional assay
MEASURED_ATTRIBUTE: IL-8, cross-linked by F(ab')2 fragment [abs. corr.] (abs. corr.)
Give the quantity in abs. corr., number only.

stdin: Using the record for P018.S.03.A.G03 (antibody, V domains shown, V regions on human Ig constant parts; also called AB27_57) VH: QEHLEESGGGLVQPEGSLTLTCKASGFDFSSNYYMSWVRQAPGTGLEWIACIDSGSSGSTWYASWVKGRFTISKTSSTTVTLQMTSLTDADTAAYFCVRDDVGSSYEYYFSLWGPGTLVTVSS VL: DVVMTQTPASVSEPVGGTVTIKCQASQSIGSFLGWYQQKPGQPPKLLIYQASKLASGVPSRFKGSGSGTEYTLTISDLESADAAAYYCQTYFGSDSYVFGGGTEVVVK , report its IL-8, cross-linked by F(ab')2 fragment [abs. corr.].
stdout: 1.58

stdin: Using the record for P018.S.07.A.B03 (antibody, V domains shown, V regions on human Ig constant parts; also called AB27_115) VH: QSVEESGGRLVTPGTPLTLTCTVSGFSLSSYAMGWVRQAPGKGLEWIGDIYGSGSTYYASWAKGRFTFSRTSTTVDLKMTSLTTEDTATYFCARSKGYNYNLWNLWGQGTLVTVSS VL: DIVMTQTPSSVSAAVGGTVTINCQASQNIYTNLAWYQQKPGQRPKLLIYDASDLASGVPSRFSGSGSGTEYTLTISDLESADAATYYCQTYSYSGSSSANPFGGGTEVVVK , report its IL-8, cross-linked by F(ab')2 fragment [abs. corr.].
stdout: 1.34

stdin: Using the record for P018.S.01.A.E05 (antibody, V domains shown, V regions on human Ig constant parts; also called AB27_17) VH: QEQLVESGGGLVQPEGSLTLTCTASGFSFSSRYYMCWVRQAPGKGLEWIACIAPDVSGSAYYATWAKGRITISETSSTTVTLRMTSLTAADTAIYFCARSVPGSLFYFQLWGPGTVVTVSS VL: AAVLTQTPPSVSAAVGGTVTIKCQSSQSVYNKNEFSWYQQKPGQPPKLLIYDASTLASGVPSRFKGSGSGTQFTLTISDLESDDAATYYCQGSYYSSGSYTAFGGGTEVVVK , report its IL-8, cross-linked by F(ab')2 fragment [abs. corr.].
stdout: 1.33

stdin: Using the record for P018.S.10.A.B01 (antibody, V domains shown, V regions on human Ig constant parts; also called AB27_166) VH: QSLEESGGRLVTPGTPLTLTCTASGFSLSSYYMSWVRQAPGKGLEWIGIIDRAGTTYYATWAKGRFTISRTSTTVDLKMTSPTTEDTGTYFCARNFIYGVGTYYGSDLWGQGTLVTVSS VL: DVVMTQTPASVSDPVGGTVTIKCQASESISRRLAWYQQKPGQPPKLLIYGASDLASGVPSRFSGSGSGTEFTLTISGVQSDDAATYYCQDTDYGSGHLGAFGGGTEVVVK , report its IL-8, cross-linked by F(ab')2 fragment [abs. corr.].
stdout: 1.04

stdin: Using the record for P018.S.06.A.A02 (antibody, V domains shown, V regions on human Ig constant parts; also called AB27_95) VH: QEQLVESGGGLVQPEGSLTLTCTSSGFSLNSNYYISWVRQAPGKGLEWIACIDAGSGSTWYASWVKGRFTISKTSSTTVTLQMTSLTAADTATYFCARDDIGTSYEYYFGLWGPGTLVTVSS VL: DVVLTQTPASVSEPVGGTVTIKCQASQTISSYLAWYQQKSGQPPKLLIYSASTLASGVSSRFKGSGSGTEYTLTISDLESADAATYYCQTYYGSDSYVFGGGTEVVVK , report its IL-8, cross-linked by F(ab')2 fragment [abs. corr.].
stdout: 1.81

stdin: Using the record for P018.S.07.A.B05 (antibody, V domains shown, V regions on human Ig constant parts; also called AB27_117) VH: QSLEESGGDLVKPGASLTLTCTASEFSFSNNYYICWVRQAPGKGLEWIACIYVHSGTTDYATWAKGRFTISRTSSTTVTLQMTSLTVADTATYFCARGRSGYYADAFDTWGPGTLVTVSS VL: ALDMTQTPSPVSAAVGGTVTINCQASQSVYNNNNLAWYQQKPGQPPKLLIYLASNLASGVPSRFKGSGSGTQFTLTISEIQSDDAATYYCQGTDSSSGWEHAFGGGTEVVVK , report its IL-8, cross-linked by F(ab')2 fragment [abs. corr.].
stdout: 1.41

stdin: Using the record for P018.S.07.A.H06 (antibody, V domains shown, V regions on human Ig constant parts; also called AB27_134) VH: QSLEESGGDLVQPGASLTLTCKASGIDLSSYWMCWVRQTPGKGLEWIGCIATYSSVTYYANWAKGRFTISKPSSTTVTLQMTSLTAADTATYFCARDPYSFNGSLFTLWGPGTLVTVSS VL: ALVMTQTASPVSAAVGGTVTIDCQASQNIGTYLAWYQQKPGQPPKLLIYTASSLASGVPSRFKGSGSGTQFTLTISDLESDDAATYYCAGYKNYNNDDNGFGGGTEVVVK , report its IL-8, cross-linked by F(ab')2 fragment [abs. corr.].
stdout: 1.23

stdin: Using the record for P018.S.10.A.F01 (antibody, V domains shown, V regions on human Ig constant parts; also called AB27_179) VH: QSLEESGGGLVQPEGSLTLTCTASGFSFSSSDYMCWVRQAPGKGLEWIACMYTGSVEHTYYANWAEGRFTISKTSSTTVTLQMTSLTAADTATYFCARSPTGYPDYGYGGFSLWGPGTLVTVSS VL: ALVMTQTPSSVSAAVGGTVTINCQASQNIYSNLAWYQQKSGQRPKLLIHGASNLESGVPSRFKGSGSGTEFTLTISDLESADAATYYCQSAYYSGGPDMAFGGGTEVVVK , report its IL-8, cross-linked by F(ab')2 fragment [abs. corr.].
stdout: 1.05
